System: A2058 melanoma
assay.overview: MTS cell viability assay, A2058 melanoma cell line
Type: cell-based
measurement.parameters: Table 1, screened at 10 μM, 48 h
Provide the recorded Viability % CTL A2058 melanoma for the entries that follow.
Answers are plain numbers, in % CTL.

Check out these entries, answers already filled in.
# Viability % CTL A2058 melanoma lookup, item Cc1nc2nccnc2cc1NC(=O)Nc1ccc(F)c(Cl)c1 [Compound 16A]
96

Which measured Viability % CTL A2058 melanoma value corresponds to Cc1nc2nc(Nc3ccccc3)cnc2cc1NC(=O)c1cccc(C(F)(F)F)c1 ?
69

Sample Cc1nc2nc(Oc3ccccc3)cnc2cc1[N+](=O)[O-] [Compound 55C] — what was its Viability % CTL A2058 melanoma?
91

Fill in: Viability % CTL A2058 melanoma of Cc1nc2nc(Oc3ccccc3)cnc2cc1NC(=O)Nc1ccccc1 [Compound 57C] is ___
94

Using the record for Cc1nc2nccnc2cc1NC(=O)c1cccc(C(F)(F)F)c1 [Compound 09A] , report its Viability % CTL A2058 melanoma.
74

Field: Viability % CTL A2058 melanoma. Fill in for each record below.
1. Cc1nc2nccnc2cc1NC(=O)c1ccc([N+](=O)[O-])cc1 [Compound 11A]
2. Cc1nc2nccnc2cc1NC(=O)CN1CCN(C)CC1 [Compound 13A]

87
94

----------
Tested on: DU145 prostate cancer
assay.overview: MTS cell viability assay, DU145 prostate cancer cell line
Type: cell-based
measurement.parameters: Table 4; DU145 prostate; 10 μM, 48 h
test.readout: Viability % CTL DU145 prostate (10 μM ) (% CTL)
Give bare numbers, in % CTL.

Worked examples, 3 molecules total:
Which Viability % CTL DU145 prostate (10 μM ) value belongs to CC(=O)Nc1cccc(Nc2cnc3cc(NC(=O)Nc4cccc(C(F)(F)F)c4)c(C)nc3n2)c1 ?
62

Bench note: what Viability % CTL DU145 prostate (10 μM ) did CC(=O)Nc1ccc(Nc2cnc3cc(NC(=O)Nc4cccc(C(F)(F)F)c4)c(C)nc3n2)cc1 show?
55

Give the measured Viability % CTL DU145 prostate (10 μM ) of CC(=O)Nc1cccc(Nc2cnc3cc(NC(=O)Nc4ccc(F)c(Cl)c4)c(C)nc3n2)c1 .
64

Now for the molecule whose Viability % CTL DU145 prostate (10 μM ) we want.
Fill blank: measured Viability % CTL DU145 prostate (10 μM ) of the molecule Cc1nc2nc(Nc3ccccc3)cnc2cc1NC(=O)Nc1ccc(Cl)cc1Cl is ____.
50

----------
Would you kindly list Viability % CTL A2058 melanoma for each of these compounds?
Test system: A2058 melanoma
assay.overview: MTS cell viability assay, A2058 melanoma cell line
Assay type: cell-based
measurement.parameters: Table 1, screened at 10 μM, 48 h
Give bare numbers, in % CTL.

Here's what some known entries look like.
I would be grateful if you could share the reported Viability % CTL A2058 melanoma for Cc1nc2nc(Oc3ccccc3)cnc2cc1N [Compound 56D] .
81

Bench note: what Viability % CTL A2058 melanoma did Cc1nc2nc(Sc3ccccc3)cnc2cc1NC(=O)Nc1ccc(F)c([N+](=O)[O-])c1 [Compound 20B] show?
84

Quick one: Viability % CTL A2058 melanoma of Cc1nc2nccnc2cc1NC(=O)CN(C)C [Compound 14A] ?
106

Using the record for Cc1nc2nc(Sc3ccccc3)cnc2cc1NC(=O)Nc1ccc(F)c(Cl)c1 [Compound 18B] , report its Viability % CTL A2058 melanoma.
83

For the compound Cc1nc2nc(Sc3ccccc3)cnc2cc1NC(=O)c1ccccc1C(F)(F)F [Compound 16B] , what Viability % CTL A2058 melanoma is on record?
84

Lab note: each compound below needs its Viability % CTL A2058 melanoma filled in.
1. Cc1nc2nc(Nc3ccccc3)cnc2cc1NC(=O)Nc1cccc(C(F)(F)F)c1
2. Cc1ccc(C(=O)Nc2cc3nccnc3nc2C)cc1 [Compound 08A]
3. Cc1nc2nccnc2cc1NC(=O)c1ccc(N)cc1 [Compound 12A]

4
80
84

Provide each entry's Viability % CTL A2058 melanoma from the list below.
1. Cc1nc2nccnc2cc1NC(=O)Nc1ccccc1 [Compound 15A]
2. Cc1nc2nccnc2cc1NC(=O)c1ccccc1 [Compound 06A]
3. Cc1nc2nc(Sc3ccccc3)cnc2cc1NC(=O)Nc1cccc(C(F)(F)F)c1 [Compound 17B]
4. Cc1ccc(S(=O)(=O)Nc2cc3nccnc3nc2C)cc1 [Compound 19A]
5. Cc1nc2nc(Sc3ccccc3)cnc2cc1NC(=O)c1cccc(C(F)(F)F)c1 [Compound 15B]
6. Cc1nc2nccnc2cc1NC(=O)Nc1cccc(C(F)(F)F)c1 [Compound 17A]
7. Cc1nc2nc(Nc3ccccc3)cnc2cc1NC(=O)Nc1ccc(F)c(Cl)c1
8. CSc1ccc(NC(=O)Nc2cc3ncc(Sc4ccccc4)nc3nc2C)cc1 [Compound 19B]

[73, 85, 56, 59, 61, 79, 2, 89]

Look at each compound and report its Viability % CTL A2058 melanoma.
1. COc1cc(C(=O)Nc2cc3nccnc3nc2C)cc(OC)c1OC [Compound 07A]
2. Cc1nc2nccnc2cc1NC(=O)c1ccc(Br)cc1F [Compound 10A]

[82, 93]

Requested read-out: Viability % CTL A2058 melanoma. Entry: Cc1nc2nccnc2cc1NC(=S)NCc1ccccc1 [Compound 18A]
74
